System: OVCAR-8 ovarian
assay.details: NCI-60 one-dose screen, 48 h (100 = growth as untreated, 0 = no growth, -100 = all killed)
experimental.context: 10 µM unless noted
Compounds without any hit were thinned out: in the full panel of roughly 83,000, 20% have a hit.
Please note: Met applies when growth is 80% or greater, and Not met applies otherwise.

## Input Could you verify whether the entry O=C1Nc2cc(Cl)ccc2/C1=C\c1c(-c2ccc(F)cc2)nc2ccccn12 shows growth of no less than 80%?
## Output Not met

## Input Could you verify whether the entry O=C1/C=C/[C@@H](O)[C@@H]2C[C@@H](O)C[C@H]2/C=C/CCC[C@H](CCc2ccc3ncccc3c2)O1 shows growth of no less than 80%?
## Output Not met

## Input Could you verify whether the entry COc1cccc2c1c1nc3cc(C)c(C)cc3nc1n2CCN(C)C shows growth of no less than 80%?
## Output Not met

## Input Could you verify whether the entry COc1ccc(C/C(=C(\C)c2ccc(OCCN3CCCC3)cc2)c2ccc(OCCN3CCCC3)cc2)cc1 shows growth of no less than 80%?
## Output Not met

## Input Could you verify whether the entry Cc1nnc2c(Cc3ccccc3)nc3ccccc3n12 shows growth of no less than 80%?
## Output Met

## Input Could you verify whether the entry Cn1cc(-c2nc(-c3c[nH]c4c(Cl)nccc34)cs2)c2cc(F)ccc21 shows growth of no less than 80%?
## Output Met

## Input Could you verify whether the entry CN[C@@H](C)C(=O)N[C@H]1CCS[C@H]2CC(C)(C)[C@@H](C(=O)N[C@H]3c4ccccc4C[C@H]3OCC#CC#CCO[C@@H]3Cc4ccccc4[C@@H]3NC(=O)[C@H]3N4C(=O)[C@@H](NC(=O)[C@H](C)NC)CCS[C@H]4CC3(C)C)N2C1=O shows growth of no less than 80%?
## Output Not met

## Input Could you verify whether the entry Cn1c2ccccc2c2c3c(c4c5ccccc5n(C)c4c21)C(=O)OC3 shows growth of no less than 80%?
## Output Met

---

Test system: SF-539 CNS
assay.details: NCI-60 one-dose screen, 48 h (100 = growth as untreated, 0 = no growth, -100 = all killed)
experimental.context: 10 µM unless noted
About 83,000 compounds went through this panel and 20% of them were active in at least one assay; those are over-represented in the sample as a whole.
So basically: is growth under 50%? Then true (1). Not under? Then false (0).

## Input # strict comparison: is reported growth < 50%? input = COc1ccc(CNCCN2C(=O)c3ccc4c5c(ccc(c35)C2=O)C(=O)N(CCNCc2ccc(OC)c(OC)c2OC)C4=O)c(OC)c1OC
## Output true (1)

## Input # strict comparison: is reported growth < 50%? input = Oc1cccc(CCc2ccc(Oc3cc(CCc4cccc(O)c4)cc(O)c3O)cc2)c1
## Output false (0)

## Input # strict comparison: is reported growth < 50%? input = COc1cc(C2C3=C(COC3=O)N(CCO)c3cc4c(cc32)OCO4)cc(OC)c1OC (centres undefined)
## Output true (1)

## Input # strict comparison: is reported growth < 50%? input = O=C1c2ccc3c4c(ccc(c24)C(=O)N1CCCNCc1ccccc1)C(=O)N(CCCNCc1ccccc1)C3=O
## Output true (1)

## Input # strict comparison: is reported growth < 50%? input = COc1cc2nc(-c3ccc(Cl)cc3)cc(OCCCN3CCOCC3)c2cc1OC
## Output false (0)

## Input # strict comparison: is reported growth < 50%? input = CCCCCCOc1ccc(/C=N/Nc2cc(C)nc3ccc(Cl)cc23)cc1
## Output true (1)

## Input # strict comparison: is reported growth < 50%? input = CC(=O)Nc1cccc(-c2ccc3c(c2)NC(=O)/C3=C\c2ccc[nH]2)c1
## Output true (1)

## Input # strict comparison: is reported growth < 50%? input = N=C1C(c2nc3ccccc3s2)=C(O)CN1c1cc(Cl)cc(Cl)c1
## Output true (1)
